assay summary: Half life in rat liver microsomes at 1 uM
Assay type: ADME, Microsome
result type: half-life at 1 µM (min)
Write down the numeric answer in min and omit the unit.

Exercise: Endpoint output: half-life at 1 µM of CNC[C@@H](O)[C@H](c1ccccc1)n1ccc2ccccc21 . Value?
Key: 9.8

====

target: Sodium-dependent dopamine transporter (Homo sapiens) (UniProt Q01959)
Sequence (Q01959 whole entry): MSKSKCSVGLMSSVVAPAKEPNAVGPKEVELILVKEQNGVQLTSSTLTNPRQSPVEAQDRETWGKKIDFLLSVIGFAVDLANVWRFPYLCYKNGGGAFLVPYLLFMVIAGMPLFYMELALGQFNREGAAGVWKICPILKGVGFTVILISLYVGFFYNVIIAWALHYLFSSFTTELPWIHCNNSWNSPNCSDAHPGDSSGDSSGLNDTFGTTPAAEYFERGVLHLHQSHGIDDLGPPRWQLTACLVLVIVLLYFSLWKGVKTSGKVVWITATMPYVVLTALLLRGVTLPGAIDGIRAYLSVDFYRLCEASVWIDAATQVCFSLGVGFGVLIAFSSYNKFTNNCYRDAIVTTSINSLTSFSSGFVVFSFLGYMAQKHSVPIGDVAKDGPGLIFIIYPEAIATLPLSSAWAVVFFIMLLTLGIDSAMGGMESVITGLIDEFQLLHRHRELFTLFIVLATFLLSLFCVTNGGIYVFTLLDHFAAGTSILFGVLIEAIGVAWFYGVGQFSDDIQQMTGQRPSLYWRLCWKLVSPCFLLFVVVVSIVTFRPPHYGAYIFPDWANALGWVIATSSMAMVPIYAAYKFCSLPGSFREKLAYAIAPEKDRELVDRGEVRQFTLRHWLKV
assay summary: Displacement of [3H]WIN-35428 from human recombinant DAT expressed in CHO cells at 1 uM
Format: cell-based
inhibition listing for selected compounds.
Respond numerically; units are % and should not be typed.

Exercise: Quick check: inhibition of Cc1cn([C@@H](c2ccccc2)[C@@H](O)CN)c2ccccc12 (racemic) ?
Key: 6

====

target: Sodium-dependent serotonin transporter (Homo sapiens)
Sequence (P31645 whole entry): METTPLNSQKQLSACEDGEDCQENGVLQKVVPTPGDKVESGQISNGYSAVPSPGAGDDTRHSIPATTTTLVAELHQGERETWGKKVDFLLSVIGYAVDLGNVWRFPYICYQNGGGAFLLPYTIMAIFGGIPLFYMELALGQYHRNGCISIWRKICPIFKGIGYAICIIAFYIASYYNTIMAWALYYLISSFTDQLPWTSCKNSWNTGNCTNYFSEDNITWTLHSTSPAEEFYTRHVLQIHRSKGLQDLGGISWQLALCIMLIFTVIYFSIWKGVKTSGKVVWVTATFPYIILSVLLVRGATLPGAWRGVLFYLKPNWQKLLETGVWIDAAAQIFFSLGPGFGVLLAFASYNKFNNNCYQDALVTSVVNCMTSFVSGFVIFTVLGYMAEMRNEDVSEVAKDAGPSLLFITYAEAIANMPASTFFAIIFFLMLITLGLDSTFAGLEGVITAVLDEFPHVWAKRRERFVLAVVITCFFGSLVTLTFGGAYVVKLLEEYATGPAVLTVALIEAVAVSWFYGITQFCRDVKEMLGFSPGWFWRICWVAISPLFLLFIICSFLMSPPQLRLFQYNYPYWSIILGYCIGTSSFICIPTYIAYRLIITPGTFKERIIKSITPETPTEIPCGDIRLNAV
pIC50: −log10 of the molar value.
Where pIC50 equals or exceeds 7, the correct label is criterion met; where it does not, the label is criterion not met.

Take a look at these entries with their results.
{"columns": ["compound", "category label"],
 "data": [
  ["CCNC[C@H](O)[C@H](c1ccccc1)n1cc(C)c2ccccc21 (racemic)", "criterion not met"],
  ["O[C@@H](CNCC1CCCCC1)[C@H](c1ccccc1)n1ccc2ccccc21 (racemic)", "criterion not met"],
  ["CNC[C@H](O)[C@H](c1ccccc1)n1cc(C)c2ccccc21 (racemic)", "criterion not met"]
]}

Switching to the query record.
Exercise: Kindly determine if pIC50 recorded for CNC[C@H](O)[C@H](c1ccccc1)n1ccc2cc(Cl)ccc21 (racemic) is above or exactly 7.
Key: criterion met

====

assay summary: Half life in monkey liver microsomes at 1 uM
Type: ADME, Macaca mulatta, Microsome
test context: rhesus monkey
result type: half-life at 1 µM (min)
Please reply with the bare figure in min and do not write the unit itself.

Exercise: Which half-life at 1 µM reading was recorded for the compound CNC[C@@H](O)[C@H](c1ccccc1)n1ccc2ccccc21 ?
Key: 9.7

====

assay summary: Membrane permeability by PAMPA assay
Assay type: ADME
test context: read-out: permeability
result type: Papp
Provide a numeric answer, followed by its unit.

Exercise: What value of measured Papp is listed for CNC[C@@H](O)[C@H](c1ccccc1)n1ccc2ccccc21 ?
Key: 4.6 ×10⁻⁶ cm/s

====

assay summary: Aqueous solubility at pH 7.4
Assay type: physicochemical
result type: solubility

Exercise: Which solubility reading was recorded for the compound CNC[C@@H](O)[C@H](c1ccccc1)n1ccc2ccccc21 ?
Key: > 50 µg/mL

====

target: Sodium-dependent dopamine transporter (Homo sapiens)
assay summary: Displacement of [3H]WIN-35428 from human recombinant DAT expressed in CHO cells at 1 uM
Type: cell-based
result type: inhibition (%)
Report as a plain number; the unit % is understood.

{"columns": ["molecule", "readout number"],
 "data": [
  ["CNC[C@H](O)[C@H](c1ccccc1)n1ccc2cc(OC)ccc21 (racemic)", 2],
  ["NC[C@H](O)[C@H](c1ccccc1)n1ccc2ccccc21 (racemic)", 7],
  ["CNC[C@H](O)[C@@H](c1ccccc1)n1ccc2ccccc21", 18],
  ["OC1(c2ccc(Cl)cc2)c2ccccc2C2=NCCN21 (stereo unspecified)", 22.1],
  ["CNC[C@H](O)[C@H](c1ccccc1)n1ccc2ccccc21", 0]
]}

// next entry
Exercise: Test system Sodium-dependent dopamine transporter (Homo sapiens); read-out inhibition; what value for CNC[C@H](O)[C@@H](c1ccccc1)n1ccc2ccccc21 (stereo in doubt) ?
Key: 4
